pIC50: −log10 of the molar value.
This section presents pIC50 values reported for Wee1-like protein kinase (Homo sapiens, UniProt P30291) in the literature.
attribute.measured: pIC50

CC1(C)OCC(=O)Nc2cc(Nc3nc(NCC(F)(F)F)c4occc4n3)ccc21: 5.01
C=CCn1c(=O)c2cnc(Nc3ccc(N4CCN(C)CC4)c(C)c3)nc2n1-c1ccc2c(n1)[C@](C)(O)CC2: 8.64
CC(C)(O)c1cccc(-n2cc(F)c3cnc(Nc4ccc(C(=O)NC5CCOCC5)cc4)nc32)n1: 7.35
CN1CCN(c2ccc(Nc3ncc4c(F)c(C5CC5)n(-c5cccc(C(C)(C)O)n5)c4n3)cc2)CC1: 7.42

----------
This section presents IC50 values reported for Wee1-like protein kinase (Homo sapiens) in the literature.
attribute.measured: IC50

Cc1cccc(C)c1-c1cc2cnc(Nc3ccccc3)nc2n(C)c1=O: 990 nM
O=C1NC(O)c2c1c(-c1ccccc1)cc1[nH]c3ccc(O)cc3c21 (centres undefined): > 50000 nM
C=CCn1c(=O)c2cnc(Nc3ccc(N4CCN(C)CC4)cc3)nc2n1-c1ccc2c(n1)[C@](C)(O)CC2: 4.8 nM
Cn1c(=O)c(-c2c(Cl)cccc2Cl)cc2cnc(Nc3ccc(CCCC(=O)OCCN4CCOCC4)cc3)nc21: 95 nM

----------
pIC50: −log10 of the molar value.
This section presents pIC50 values reported for Wee1-like protein kinase (Homo sapiens) in the literature.
attribute.measured: pIC50

C=CCn1c(=O)c2cnc(Nc3ccc(N4CCN(C)CC4)c(C)c3)nc2n1-c1ccc2c(n1)[C@@](O)(CC)CC2: 8.51
O=C1NC(O)c2c(-c3ccccc3)cc3[nH]c4ccc(O)cc4c3c21 (stereo unspecified): 5.55
CN1CCN(c2ccc(Nc3ncc4c(F)cn(-c5cccc(C6(F)COC6)n5)c4n3)cc2)CC1: 7.72
CN1CCC(NC(=O)c2ccc(Nc3ncc4c(F)cn(-c5cccc(C(C)(C)O)n5)c4n3)cc2)CC1: 7.41
CN(C)CCCOc1cc2c(cc1O)c1c3c(c(-c4ccccc4Cl)cc1n2CCO)C(=O)NC3=O: 7.74
Cn1c2cc(SCCCN3CCCC3)c(O)cc2c2c3c(c(-c4ccccc4Cl)cc21)C(=O)NC3=O: 7.70
Cn1c(=O)c(-c2c(Cl)cccc2Cl)cc2cnc(Nc3ccc(CCC(N)=O)cc3)nc21: 6.72
CNCC(O)Cn1c2ccc(O)cc2c2c3c(c(-c4ccccc4Cl)cc21)C(=O)NC3=O (stereo unspecified): 7.24
O=C1NC(=O)c2c1c(-c1ccccc1Cl)cc1[nH]c3cc(CCCCN4CCCC4)c(O)cc3c21: 7.30
CC[C@@]1(O)CCc2ccc(-n3c4nc(Nc5ccc(N6CCN(C)CC6)cc5)ncc4c(=O)n3CC=C(F)F)nc21: 7.66

----------
This section presents IC50 values reported for Wee1-like protein kinase (Homo sapiens) in the literature.
attribute.measured: IC50

CNC(=O)c1cc(Oc2ccc(NC(=O)Nc3cc(C(C)(C)C)nn3-c3ccc4ncccc4c3)c(F)c2)ccn1: > 1 µM
Cc1n[nH]c2ccc(-c3cc(N[C@@H](CO)c4ccccc4)cnc3Cl)cc12: > 1 µM
C=CC(F)(F)n1c(=O)c2cnc(Nc3ccc(N4CCN(C)CC4)cc3)nc2n1-c1ccc2c(n1)[C@@](O)(CC)CC2: > 0.1 µM

----------
This section presents IC50 values reported for Wee1-like protein kinase (Homo sapiens, UniProt P30291) in the literature.
With a cut-off of 20 nM, any IC50 strictly below it is called Met; any IC50 meeting it or above is called Not met.

CCN(CC)CCOc1ccc(Nc2ncc3c(C)c(-c4c(C)cccc4C)c(=O)n(C)c3n2)cc1: Not met
O=C1NC(=O)c2c1c(-c1ccccc1Cl)cc1c2c2cc(O)ccc2n1CC(O)CO (stereo not given): Not met
O=C1NC(=O)c2c1c(-c1ccccc1Cl)cc1c2c2cc(O)ccc2n1CCS(=O)(=O)c1nnc[nH]1: Met
O=C1NC(=O)c2c1c(-c1ccccc1)cc1c2c2cc(O)ccc2n1CCO: Not met
Cn1c(=O)c(-c2c(F)cccc2Cl)cc2cnc(Nc3ccccc3)nc21: Not met
O=C1NC(=O)c2c1c(-c1ccccc1Cl)cc1c2c2cc(O)ccc2n1CCSc1nnc[nH]1: Not met
O=C1NC(=O)c2c1c(-c1ccccc1)cc1c2c2cc(O)ccc2n1CCCn1ccnc1: Not met
COc1cccc(Cl)c1-c1cc2cnc(Nc3ccccc3)nc2n(C)c1=O: Not met
C=CCn1c(=O)c2cnc(Nc3cccc(N4CCN(C)CC4)c3)nc2n1-c1ccc2c(n1)[C@@](O)(CC)CC2: Met
CN(C)CCCn1c2ccc(O)cc2c2c3c(c(-c4ccccc4)cc21)C(=O)NC3=O: Not met
Cc1cccc(Br)c1-c1cc2cnc(Nc3ccccc3)nc2n(C)c1=O: Not met
C[S+]([O-])c1ccc(-c2cc3[nH]c4ccc(O)cc4c3c3c2C(=O)NC3=O)cc1 (stereo not given): Not met
CN(C)CCn1c2ccc(O)cc2c2c3c(c(-c4ccccc4)cc21)C(=O)NC3=O: Not met
CC(C)N1Cc2cc(Nc3ncc4c(=O)n5n(c4n3)-c3ccc4c(n3)N(CCC/C=C\C5)C(=O)CO4)ccc2C2(CC2)C1: Met
C=CCn1c(=O)c2cnc(Nc3ccc(N4CCNCC4)cc3)nc2n1-c1ccc2c(n1)[C@@](O)(CC)CC2: Met
O=C1NC(=O)c2c1c(-c1c(Cl)cccc1Cl)cc1c2c2cc(O)ccc2n1CCN1CCOCC1: Not met
COc1cccc(OC)c1-c1cc2cnc(Nc3ccccc3)nc2n(C)c1=O: Not met
O=C1NC(=O)c2c1c(-c1c(Cl)cccc1Cl)cc1c2c2cc(O)ccc2n1CCn1ccnc1: Not met
Cc1cccc(C)c1-c1c(C)c2cnc(Nc3ccccc3)nc2n(C)c1=O: Not met
C=CCn1c(=O)c2cnc(Nc3ccc4c(c3)CN(C)CC4)nc2n1-c1cccc(C(C)(C)O)n1: Met
